// data source = PubChem BioAssay (NCATS)

- Test system: KB-3-1
- Assay explanation: Cytotoxic Profiling of Annotated Libraries Using Quantitative High-Throughput Screening (AID 1296008); further: nearly all actives have a fitted effect of over 60% in size; on max response: on the % scale 0 is the no-effect control and ±100 the full control effect
- Run parameters: Five cell lines viability, CellTiter-Glo ATP luminescence, 48-72 h; stronger effect = lower value
Records with an inconclusive call do not appear. Activity calls are given as the source filed them. The call rests on the fitted dose curve; in most records, active means well fitted inhibition curve with a large enough effect; inconclusive means small, poorly fitted or top-dose-only effect; inactive means flat fitted curve, though single readings scatter.
For each of the molecules below, state its max response.

IN: Bench note: what max response did CC(C)/C=C1\NC(=O)C(C(C)C)n2c1nc1c(c2=O)C=CC=CO1 (configuration not stated) show?
OUT: 4.42% (inactive)

IN: // next record C/C=C/C=C/C(O)=C1\C(O)=C(C)C(=O)[C@@]2(C)OC(=O)[C@@](C)(NC(=O)/C=C/C(=O)O)[C@@H]12
OUT: -1.41% (inactive)

IN: Field entry: COc1cc(/C=C/C(=O)O[C@H]2[C@H](O)[C@@H](CO)O[C@@]2(CO)O[C@H]2O[C@H](CO)[C@@H](O)[C@H](O)[C@H]2O)ccc1O
OUT: 1.78% (inactive)

IN: Please do the same for Cc1cc2c(F)c(Oc3ncnn4cc(OCC(C)O)c(C)c34)ccc2[nH]1 (configuration not stated) as well.
OUT: -12.6% (inactive)

Required: max response, one value per molecule below.
1. CC(=O)OC[C@@]12C(=O)C[C@@H](C)[C@]3(C[C@@H](c4ccoc4)O[C@H]3OC(C)=O)[C@H]1CCC[C@]21CO1
2. COc1ccc2nc(S(=O)(=O)Cc3ncc(C)c(OC)c3C)[nH]c2c1
3. CC1OC(OC2C(C)OC(OC3C(O)C(CO)OC(O[C@H]4CC[C@@]5(C)C(CC[C@]6(C)C5CC=C5C7[C@@H](C)[C@H](C)CC[C@]7(C(=O)O)CC[C@]56C(=O)O)C4(C)C)C3O)C(O)C2O)C(O)C(O)C1O (some centres not stated)

OUT:
1: -1.02% (inactive); 2: -6.6% (inactive); 3: 9.21% (inactive)

###

- Assay explanation: Primary fluorescence-based thiol-reactive (MSTI) qHTS assay for identification of artifact compounds. (AID 1845221);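 further: thiol-reactive compounds lower the probe fluorescence signal; nearly all actives have a fitted effect of over 65% in size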
- Run parameters: MSTI thiol-reactivity probe, 1 h; series mostly up to 53.8 µM
Inconclusive results are not listed. The source made the active and inactive calls. Calls follow the shape of the dose curve; as a rule, active = well fitted inhibition curve with a large enough effect; inconclusive = small, poorly fitted or top-dose-only effect; inactive = no such curve, though single readings can be large or run the other way.
Hi there, I'd appreciate the recorded activity change, negative = thiol reactive for every entry that follows.

IN: # get_value(readout='activity change, negative = thiol reactive', item= C[C@@H]1O[C@@H](O[C@H]2[C@H](OC(=O)[C@]34CCC(C)(C)C[C@H]3C3=CCC5[C@@]6(C)C[C@H](O)[C@H](O[C@@H]7O[C@H](CO)[C@@H](O[C@H]8OC[C@](O)(CO)[C@H]8O)[C@H](O)[C@H]7O)[C@@](C)(CO)C6[C@H](O)C[C@@]5(C)[C@]3(C)C[C@H]4O)OC[C@H](O)[C@@H]2O)[C@H](O)[C@H](O)[C@H]1O[C@@H]1OC[C@@H](O)[C@H](O[C@@H]2OC[C@](O)(CO)[C@H]2O)[C@H]1O (some centres undefined) )
OUT: 502% [at 11.5 µM] (inactive)

IN: Now give it for CC1OC(OC2C(C)OC(OC3C(OC(=O)C45CCC(C)(C)CC4C4=CCC6C7(C)CCC(OC8OC(C(=O)O)C(O)C(O)C8OC8OC(CO)C(O)C(OC9OC(C)C(O)C(O)C9O)C8O)C(C)(CO)C7CCC6(C)C4(C)CC5)OC(CO)C(O)C3O)C(O)C2O)C(O)C(O)C1O (centres undefined) too.
OUT: 122% [at 11.5 µM] (inactive)

IN: Now consider CC(=O)O[C@H]1C(=O)[C@@]2(C)[C@H]([C@H](OC(=O)c3ccccc3)[C@]3(O)C[C@H](OC(=O)[C@H](O)[C@@H](NC(=O)c4ccccc4)c4ccccc4)C(C)=C1C3(C)C)[C@]1(OC(C)=O)CO[C@@H]1C[C@@H]2O and answer again.
OUT: 52.3% [at 11.5 µM] (inactive)

Proceed to the following item.
IN: Item under review: CC1(C=O)CC[C@]2(C(=O)O[C@@H]3O[C@H](CO)[C@@H](O)[C@H](O)[C@H]3O)CC[C@]3(C)C(=CCC4[C@@]5(C)C[C@H](O)[C@H](O[C@@H]6OC[C@@H](O)[C@H](O)[C@H]6O)[C@@](C)(CO)C5CC[C@]43C)C2C1 (some centres undefined) . Reported activity change, negative = thiol reactive?
OUT: 182% [at 11.5 µM] (inactive)

###

- Tested on: HeLa
- Assay explanation: Primary qHTS to identify gynecologic anti-cancer compounds using libraries of approved drugs and bioactive compounds (AID 1345084); further: on the % scale 0 is the no-effect control and ±100 the full control effect; nearly all actives have a fitted effect of over 55% in size
- Run parameters: Gynecologic cancer cell panel viability, ATPlite luminescence, 48 h; series mostly up to 57.5 µM
Results filed as inconclusive are left out. The source made the active and inactive calls. Calls come from the whole dose curve; as a rule, active = well fitted cell-killing curve with a large enough effect; inconclusive = small, poorly fitted or top-dose-only effect, or effect the other way; inactive = flat fitted curve, though single readings scatter.
Measured metric: outcome

These recorded examples may help you get a feel for the data.
IN: Using the record for C/C=C1\[C@H](O[C@@H]2O[C@H](CO)[C@@H](O)[C@H](O)[C@H]2O)OC=C(C(=O)OC)[C@H]1CC(=O)OC[C@H]1O[C@@H](OCCc2ccc(O)cc2)[C@H](O)[C@@H](O)[C@@H]1O , report its outcome.
OUT: inactive

IN: Please give the result for C[C@@H]1CC[C@]2(C(=O)O)CC[C@]3(C)C(=CCC4[C@@]5(C)C[C@@H](O)[C@H](O)[C@@](C)(CO)C5CC[C@]43C)C2[C@]1(C)O (stereo partly specified) too.
OUT: inactive

IN: Also check C[C@@H]1[C@H]2[C@H](O[C@@H]3O[C@H](CO)[C@@H](O)[C@H](O)[C@H]3O)OC=C(C(=O)O)[C@H]2C[C@@H]1O
OUT: inactive

IN: Input NC1(C(=O)NC(CCO)c2ccc(Cl)cc2)CCN(c2ncnc3[nH]ccc23)CC1 (stereo unspecified)
OUT: inactive

IN: Same question for C[C@@H]1O[C@@H](O[C@H]2[C@@H]3C=CO[C@@H](O[C@@H]4O[C@H](CO)[C@@H](O)[C@H](O)[C@H]4O)[C@@H]3[C@@]3(CO)O[C@@H]23)[C@H](OC(=O)/C=C/c2ccccc2)[C@H](O)[C@H]1O please.
OUT: inactive

Batch of 4 compounds: report outcome for each.
1. CC(C)(O)c1ccc2c(c1)C(O)C[C@H]1[C@](C)(C(=O)O)CCC[C@]21C (stereo partly specified)
2. C[C@@H]1O[C@@H](OC[C@H]2O[C@@H](OC(CCCCc3ccc(O)cc3)CCc3ccc(O)cc3)[C@H](O)[C@@H](O)[C@@H]2O)[C@H](O)[C@H](O)[C@H]1O (stereo partly specified)
3. CC(C)C(C(=O)N(C)C(C)C(N)=O)N(C)C(=O)C1CCCN1C(=O)/C=C/C=C/C(O)C(C)O (stereo unspecified)
4. CCOc1cc(CC(=O)NC(CC(C)C)c2ccccc2N2CCCCC2)ccc1C(=O)O (stereo unspecified)

OUT:
inactive
inactive
inactive
inactive

Would you be so kind as to report outcome for each listed record?
1. COc1ccc(-n2[nH]c(=O)c3[nH]c4cc(Cl)ccc4c(=O)c3c2=O)c(C)c1
2. OCC(CO[C@@H]1O[C@H](CO)[C@@H](O)[C@H](O)[C@H]1O)c1ccc2c(c1)OCO2 (stereo partly specified)
3. O=C(O)c1ccccc1NCCc1ccccc1
4. C=C1C(=O)O[C@H](CCC)[C@H]1C(=O)O

OUT:
inactive
inactive
inactive
inactive

Please report outcome for every entry that follows.
1. CNC(=S)NS(=O)(=O)c1cc(CCNC(=O)c2cc(Cl)ccc2OC)ccc1OC
2. CCC1C(=O)OC23C=C[C@@H]4C(C(=O)O)=CO[C@H](O[C@@H]12)[C@@H]43 (stereo partly specified)
3. OC[C@H]1O[C@@H](Oc2ccccc2)[C@H](O)[C@@H](O)[C@@H]1O

OUT:
inactive
inactive
inactive

###

- Tested on: KB-3-1
- Assay explanation: Cytotoxic Profiling of Annotated Libraries Using Quantitative High-Throughput Screening (AID 1296008); further: nearly all actives have a fitted effect of over 60% in size
- Run parameters: Five cell lines viability, CellTiter-Glo ATP luminescence, 48-72 h
Results filed as inconclusive are left out. The source made the active and inactive calls. The call rests on the fitted dose curve; in most records, active means well fitted inhibition curve with a large enough effect; inconclusive means small, poorly fitted or top-dose-only effect; inactive means flat fitted curve, though single readings scatter.
Your reply should match one of these outcome classes. active, inactive

Solved cases (7 shown):
IN: Called result for COc1ncc(Nc2ncc([C@H](C)N3CCN(S(C)(=O)=O)CC3)cc2-c2nc(C)nc(N)n2)cc1F
OUT: active

IN: Lookup CC(=O)O[C@@](C)(C(=O)/C=C/C(C)(C)O)[C@H]1[C@H](O)C[C@@]2(C)[C@@H]3CC=C4[C@@H](C=C(O)C(=O)C4(C)C)[C@]3(C)C(=O)C[C@]12C
OUT: active

IN: Same question for COc1cc2ncnc(N3CCC(Oc4cnc5ccccc5n4)C3)c2cc1OC (stereo not drawn) please.
OUT: active

IN: Now consider C[C@H](NC(c1cccc(C[P+](=O)O)c1)[C@H](C)O)c1ccc(Cl)c(Cl)c1 (stereo partly drawn) and answer again.
OUT: inactive

IN: Ok, now NCCCNc1ccc(Nc2nccc(Nc3cc(C4CC4)[nH]n3)n2)cc1
OUT: active

IN: Consider next the compound CC(C)(C(=O)NCC(F)(F)C(F)(F)F)C(=O)NC1C(=O)Nc2ccccc2-c2ccccc21 (stereo not drawn) in the same way.
OUT: active

IN: And then CC[C@H](C)[C@H](NC(=O)[C@H]([C@@H](C)CC)N(C)C(C)=O)C(=O)N[C@H](C(=O)N[C@@H](CC(C)C)C(=O)[C@@]1(C)CO1)[C@@H](C)O , what is it?
OUT: active

Turning to the following compound.
IN: What was the test verdict on CC(C)(C)c1ccc(S(=O)(=O)NCc2ccc(C(=O)Nc3cccnc3)cc2)cc1 ?
OUT: active
